Provenance of the data: the supplement of paper PMC6757056

B1: library; a variant is named by its letters at N, in order (parent)
chain: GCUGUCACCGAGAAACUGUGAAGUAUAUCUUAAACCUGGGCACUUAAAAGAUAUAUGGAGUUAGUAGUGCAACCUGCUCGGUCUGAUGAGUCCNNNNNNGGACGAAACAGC

# Variants of: B1
# experimental protocol: normalized RNA/DNA level with ligand (relative to sTRSVctl = 100) (log10 (% of sTRSVctl)); HEK293T; ligand: cyclic di-GMP (c-di-GMP-II aptamer); ligand concentration (+) RNA-Seq: 1 mM; higher = less ribozyme self-cleavage, higher mRNA level
# stated conditions: reporter: mCherry (pCS4076), ligand present: yes
Can you tell me normalized RNA/DNA level with ligand (log10) for the items I'm about to list?
Respond numerically, and do not add a unit to the figure.

Lookup: Entry under review: `GCUUCA` . Reported normalized RNA/DNA level with ligand (log10)?
Found: 1.81

Lookup: Entry under review: `AGGUAU` . Reported normalized RNA/DNA level with ligand (log10)?
Found: 1.76

Lookup: Entry under review: `AGAAAU` . Reported normalized RNA/DNA level with ligand (log10)?
Found: 1.83

Lookup: Entry under review: `CUGUAU` . Reported normalized RNA/DNA level with ligand (log10)?
Found: 1.72

Lookup: Entry under review: `GACAGA` . Reported normalized RNA/DNA level with ligand (log10)?
Found: 1.7

Lookup: Entry under review: `CACCCU` . Reported normalized RNA/DNA level with ligand (log10)?
Found: 1.75

Lookup: Entry under review: `GUUGCG` . Reported normalized RNA/DNA level with ligand (log10)?
Found: 1.88

Lookup: Entry under review: `GGAAUC` . Reported normalized RNA/DNA level with ligand (log10)?
Found: 1.76

Lookup: Entry under review: `ACACUU` . Reported normalized RNA/DNA level with ligand (log10)?
Found: 1.72

Lookup: Entry under review: `UAAUAG` . Reported normalized RNA/DNA level with ligand (log10)?
Found: 1.83

Lookup: Entry under review: `GCUACA` . Reported normalized RNA/DNA level with ligand (log10)?
Found: 1.79

Lookup: Entry under review: `UCCAGG` . Reported normalized RNA/DNA level with ligand (log10)?
Found: 1.9

Lookup: Entry under review: `GCUCUG` . Reported normalized RNA/DNA level with ligand (log10)?
Found: 1.8

Lookup: Entry under review: `AUCCGA` . Reported normalized RNA/DNA level with ligand (log10)?
Found: 1.73

Lookup: Entry under review: `CGCGCG` . Reported normalized RNA/DNA level with ligand (log10)?
Found: 1.92

Lookup: Entry under review: `GCUCGG` . Reported normalized RNA/DNA level with ligand (log10)?
Found: 1.88

Lookup: Entry under review: `CCAGCU` . Reported normalized RNA/DNA level with ligand (log10)?
Found: 1.86

Lookup: Entry under review: `GUUAAU` . Reported normalized RNA/DNA level with ligand (log10)?
Found: 1.77

Lookup: Entry under review: `UUGGUC` . Reported normalized RNA/DNA level with ligand (log10)?
Found: 1.86

Lookup: Entry under review: `GAUAGU` . Reported normalized RNA/DNA level with ligand (log10)?
Found: 1.78

Lookup: Entry under review: `UGUCAC` . Reported normalized RNA/DNA level with ligand (log10)?
Found: 1.87

Lookup: Entry under review: `GCGGAC` . Reported normalized RNA/DNA level with ligand (log10)?
Found: 1.46

Lookup: Entry under review: `UUGGUG` . Reported normalized RNA/DNA level with ligand (log10)?
Found: 1.78

Lookup: Entry under review: `UGCGGC` . Reported normalized RNA/DNA level with ligand (log10)?
Found: 1.9

Lookup: Entry under review: `CCGACG` . Reported normalized RNA/DNA level with ligand (log10)?
Found: 1.79

Lookup: Entry under review: `CCCAAG` . Reported normalized RNA/DNA level with ligand (log10)?
Found: 1.74

Lookup: Entry under review: `CUCUCG` . Reported normalized RNA/DNA level with ligand (log10)?
Found: 1.96

Lookup: Entry under review: `AAGUCU` . Reported normalized RNA/DNA level with ligand (log10)?
Found: 1.8

Lookup: Entry under review: `UUGAUC` . Reported normalized RNA/DNA level with ligand (log10)?
Found: 1.85

Lookup: Entry under review: `AGGUUU` . Reported normalized RNA/DNA level with ligand (log10)?
Found: 1.85
